Please respond with reported % of Control Specific Binding 1st for every item in the list.
# SUBJECT OF TEST: UniProt:P21554
# Sequence (P21554 whole entry): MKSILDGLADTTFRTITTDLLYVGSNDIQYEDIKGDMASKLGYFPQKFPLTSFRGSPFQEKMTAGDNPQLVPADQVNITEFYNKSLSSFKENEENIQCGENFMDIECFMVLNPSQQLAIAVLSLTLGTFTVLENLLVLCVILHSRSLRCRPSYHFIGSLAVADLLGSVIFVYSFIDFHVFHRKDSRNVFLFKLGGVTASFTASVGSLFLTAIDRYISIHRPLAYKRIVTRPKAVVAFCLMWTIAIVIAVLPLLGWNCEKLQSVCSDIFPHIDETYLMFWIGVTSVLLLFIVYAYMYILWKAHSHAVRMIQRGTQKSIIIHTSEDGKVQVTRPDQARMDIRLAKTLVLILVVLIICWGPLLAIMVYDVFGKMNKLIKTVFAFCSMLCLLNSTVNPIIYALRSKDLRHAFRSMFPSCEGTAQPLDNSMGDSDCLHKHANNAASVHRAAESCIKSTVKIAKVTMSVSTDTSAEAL
# MEASUREMENT NOTES: CB1 Binding Assay ([3H]CP 55940, cell membrane homogenates)
# RUN PARAMETERS: CB1; test concentration 1.0E−05 (MD); first replicate
# number only, unit % dropped from output

q: Item CC1(Cc2ccccc2)COc2cc(C(=O)NC3CCCCC3)ccc21 (centres unmarked) has what recorded % of Control Specific Binding 1st?
a: 29.9

q: Item CC1(Cc2ccccc2)COc2cc(C(=O)Nc3ccccc3I)ccc21 (centres unmarked) has what recorded % of Control Specific Binding 1st?
a: 85.7

q: Item CC1(Cc2ccccc2)COc2ccc(C(=O)Nc3ccccc3I)cc21 (centres unmarked) has what recorded % of Control Specific Binding 1st?
a: 85.9

q: Item CC1(Cc2ccccc2)COc2cc(C(=O)N3CCCCC3)ccc21 (centres unmarked) has what recorded % of Control Specific Binding 1st?
a: 22

q: Item CC1(Cc2ccccc2)COc2ccc(C(=O)NC3CCCCC3)cc21 (centres unmarked) has what recorded % of Control Specific Binding 1st?
a: 53.5
